Each item that follows carries a reported IC50.
biological target: CRAF (Homo sapiens, UniProt P04049); assay: CRAF kinase activity assay (ADP-Glo); format: biochemical; details: Table 3
Sequence (P04049 whole entry): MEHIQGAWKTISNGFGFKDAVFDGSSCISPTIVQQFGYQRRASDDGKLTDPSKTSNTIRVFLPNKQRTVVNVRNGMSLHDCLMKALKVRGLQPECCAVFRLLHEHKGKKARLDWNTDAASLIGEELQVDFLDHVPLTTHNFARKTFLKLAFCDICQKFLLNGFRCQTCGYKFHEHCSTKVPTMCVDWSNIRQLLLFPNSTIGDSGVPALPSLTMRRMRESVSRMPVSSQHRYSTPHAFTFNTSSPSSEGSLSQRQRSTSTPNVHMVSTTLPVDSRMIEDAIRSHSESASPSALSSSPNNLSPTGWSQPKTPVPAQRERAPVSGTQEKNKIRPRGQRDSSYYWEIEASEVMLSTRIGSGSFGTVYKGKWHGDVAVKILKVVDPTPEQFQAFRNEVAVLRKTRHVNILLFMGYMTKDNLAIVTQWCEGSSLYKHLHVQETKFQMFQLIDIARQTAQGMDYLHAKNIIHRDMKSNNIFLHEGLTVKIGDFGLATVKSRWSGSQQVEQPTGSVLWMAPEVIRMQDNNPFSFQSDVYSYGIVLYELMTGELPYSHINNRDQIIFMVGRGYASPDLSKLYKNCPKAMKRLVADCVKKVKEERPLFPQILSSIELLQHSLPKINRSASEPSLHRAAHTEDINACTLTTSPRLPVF

Example cases with answers are listed next.
- Record Smiles: "Cc1c(F)cccc1S(=O)(=O)Nc1ccc(F)c(Nc2ncnc3cnc(-n4nc(C(=O)N(C)CCO)c5ccccc54)nc23)c1F"
  Reported Endpoint: "IC50"
  Test Value: "10 to 50 nM"
- Record Smiles: "Cc1c(S(=O)(=O)Nc2ccc(F)c(Nc3ncnc4cnc(-n5cnc6ccccc65)nc34)c2F)ccc(F)c1F"
  Reported Endpoint: "IC50"
  Test Value: "> 50 nM"
- Record Smiles: "O=S(=O)(Nc1ccc(F)c(Nc2ncnc3cnc(-n4cnc5c(N6CCN(CCO)CC6)cccc54)nc23)c1F)c1cccc(Cl)c1Cl"
  Reported Endpoint: "IC50"
  Test Value: "< 10 nM"

GET /value?item= `N#CC1(c2cccc3c2nnn3-c2ncc3ncnc(Nc4c(F)ccc(NS(=O)(=O)c5cccc(Cl)c5Cl)c4F)c3n2)CC1` &field=IC50 returns < 10 nM

IC50 reading for `COCCOc1cccc2c1nnn2-c1ncc2ncnc(Nc3c(F)ccc(NS(=O)(=O)c4cccc(Cl)c4Cl)c3F)c2n1` : < 10 nM

* * *

test system: SW480 pERK; assay: Phospho-ERK inhibition, AlphaLISA SureFire Ultra p-ERK 1/2; assay type: cell-based, human; details: Table 3; lowest value of the pERK IC50 curve
Reported Endpoint: SW480 (Ymin %)
Numbers only here, please. The scale is %.

Before answering, review these 3 worked examples.
- Compound: "O=S(=O)(Nc1ccc(F)c(Nc2ncnc3cnc(-n4cnc5ccccc54)nc23)c1F)c1cccc(Cl)c1Cl"
  System Under Test: "SW480 pERK"
  SW480 (Ymin %): 3
- Compound: "Cc1ncn(-c2ncc3ncnc(Nc4c(F)ccc(NS(=O)(=O)c5ccccc5C#N)c4F)c3n2)c1C"
  System Under Test: "SW480 pERK"
  SW480 (Ymin %): "−2.0"
- Compound: "COc1ccc(S(=O)(=O)Nc2ccc(F)c(Nc3ncnc4cnc(-n5cnc(C)c5C)nc34)c2F)c(C)c1"
  System Under Test: "SW480 pERK"
  SW480 (Ymin %): 4

The recorded SW480 (Ymin %) for entry `COc1ccc(S(=O)(=O)Nc2ccc(F)c(Nc3ncnc4cnc(-n5cnc6ccccc65)nc34)c2F)c(F)c1` equals −8

// recorded SW480 (Ymin %) for `COc1ccc(S(=O)(=O)Nc2ccc(F)c(Nc3ncnc4cnc(-n5cnc(C)c5C)nc34)c2F)cc1` : −7

* * *

biological target: BRAF (Homo sapiens); construct: GST; purchased Millipore Sigma B4062-10UG; experiment: BRAF kinase activity assay (ADP-Glo); format: biochemical; conditions: Table 3
Sequence (P15056 whole entry): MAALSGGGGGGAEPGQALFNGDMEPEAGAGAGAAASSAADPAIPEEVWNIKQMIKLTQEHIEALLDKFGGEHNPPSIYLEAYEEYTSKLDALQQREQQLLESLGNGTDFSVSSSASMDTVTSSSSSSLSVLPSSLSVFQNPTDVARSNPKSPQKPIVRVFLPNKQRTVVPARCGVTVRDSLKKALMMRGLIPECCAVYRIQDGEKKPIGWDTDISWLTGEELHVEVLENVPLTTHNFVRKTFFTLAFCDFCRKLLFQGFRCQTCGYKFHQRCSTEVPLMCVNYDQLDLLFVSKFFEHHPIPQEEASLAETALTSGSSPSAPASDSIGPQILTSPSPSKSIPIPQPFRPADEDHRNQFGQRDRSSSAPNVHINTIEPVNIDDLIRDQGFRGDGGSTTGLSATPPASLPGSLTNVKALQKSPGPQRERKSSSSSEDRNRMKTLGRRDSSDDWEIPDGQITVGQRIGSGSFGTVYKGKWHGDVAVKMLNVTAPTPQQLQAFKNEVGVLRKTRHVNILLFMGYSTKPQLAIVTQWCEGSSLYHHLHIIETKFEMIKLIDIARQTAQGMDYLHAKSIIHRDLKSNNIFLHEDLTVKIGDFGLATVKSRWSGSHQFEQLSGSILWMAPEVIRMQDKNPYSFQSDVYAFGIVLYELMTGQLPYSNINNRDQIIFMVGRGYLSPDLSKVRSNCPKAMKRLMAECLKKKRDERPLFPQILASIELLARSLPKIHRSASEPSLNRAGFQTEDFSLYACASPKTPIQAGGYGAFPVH
pIC50: −log10 of the molar value.
Reported Endpoint: pIC50

// below: answered compounds
- Record Smiles: "Cc1cccc(S(=O)(=O)Nc2ccc(F)c(Nc3ncnc4cnc(-n5cnc6ccccc65)nc34)c2F)c1Cl"
  pIC50: "8.00 to 9.00"
- Record Smiles: "Cc1c(F)cccc1S(=O)(=O)Nc1ccc(F)c(Nc2ncnc3cnc(-n4nc(C(=O)N(C)C)c5ccccc54)nc23)c1F"
  pIC50: "8.00 to 9.00"

Sample `Cc1c(F)cccc1S(=O)(=O)Nc1ccc(F)c(Nc2ncnc3cnc(-n4cnc5ccccc54)nc23)c1F` , system: BRAF (Homo sapiens). Its pIC50 is 8.00 to 9.00

* * *

target: CRAF (Homo sapiens); assay: CRAF kinase activity assay (ADP-Glo); assay type: biochemical; settings: Table 3
Reported Endpoint: IC50

Worked cases, IC50 given:
- Compound: "Cc1c(F)cccc1S(=O)(=O)Nc1ccc(F)c(Nc2ncnc3cnc(-n4cc(C(=O)N5CCC[C@H](O)C5)c5ccccc54)nc23)c1F [Example 103]"
  IC50: "< 10 nM"
- Compound: "CCC1(O)CCN(c2cccc3c2ncn3-c2ncc3ncnc(Nc4c(F)ccc(NS(=O)(=O)c5cccc6c5OC(F)(F)O6)c4F)c3n2)CC1 [Example 151]"
  IC50: "10 to 50 nM"
- Compound: "Cc1c(F)cccc1S(=O)(=O)Nc1ccc(F)c(Nc2ncnc3cnc(-n4nc(C(=O)N(C)C)c5ccccc54)nc23)c1F [Example 105]"
  IC50: "> 50 nM"
- Compound: "O=S(=O)(Cc1ccncc1)c1cn(-c2ncc3ncnc(Nc4c(F)ccc(NS(=O)(=O)c5cccc(Cl)c5Cl)c4F)c3n2)c2ccccc12 [Example 143]"
  IC50: "10 to 50 nM"
- Compound: "COc1ccc(S(=O)(=O)Nc2ccc(F)c(Nc3ncnc4cnc(N5CC[C@H](F)C5)nc34)c2F)c(C)c1 [Example 57]"
  IC50: "> 50 nM"
- Compound: "Cc1c(F)cccc1S(=O)(=O)Nc1ccc(F)c(Nc2ncnc3cnc(-n4cc(C(=O)N5CCN(C)CC5)c5ccccc54)nc23)c1F [Example 99]"
  IC50: "10 to 50 nM"

Noted for O=S(=O)(Nc1ccc(F)c(Nc2ncnc3cnc(-n4cnc5c(N6CCC7(CCCO7)CC6)cccc54)nc23)c1F)c1cccc(Cl)c1Cl [Example 129] : its IC50 reads 10 to 50 nM

* * *

Recorded SW480 (Ymin %) values for a group of compounds are listed next.
test system: SW480 pERK; assay: Phospho-ERK inhibition, AlphaLISA SureFire Ultra p-ERK 1/2; assay type: cell-based, human; conditions: Table 3; lowest value of the pERK IC50 curve
Your answer is read as %, so omit the unit and give the number.

- Compound: "N#Cc1ccccc1S(=O)(=O)Nc1ccc(F)c(Nc2ncnc3cnc(N4CC[C@H](F)C4)nc23)c1F"
  System Under Test: "SW480 pERK"
  SW480 (Ymin %): 13

GET /value?item= `Cc1c(F)cccc1S(=O)(=O)Nc1ccc(F)c(Nc2ncnc3cnc(-n4cnc5c(N)cccc54)nc23)c1F` &field=SW480 (Ymin %) returns 3.2

Briefly, SW480 (Ymin %) measured for `COc1ccc(S(=O)(=O)Nc2ccc(F)c(Nc3ncnc4cnc(-n5cnc(C)c5)nc34)c2F)cc1OC` : −5

Recorded result, `COc1ccc(S(=O)(=O)Nc2ccc(F)c(Nc3ncnc4cnc(Oc5cccc(C#N)c5)nc34)c2F)cc1` , SW480 (Ymin %): −9

Sample `CO[C@@H]1CCN(S(=O)(=O)Nc2ccc(F)c(Nc3ncnc4cnc(-n5cnc6ccccc65)nc34)c2F)C1` ; SW480 (Ymin %) observed: 2

Form: compound = COc1ccc(S(=O)(=O)Nc2ccc(F)c(Nc3ncnc4cnc(N5CCC(O)C5)nc34)c2F)cc1 (stereo not shown) [Example 41] ; SW480 (Ymin %) = 6

`CO[C@@H]1CCN(S(=O)(=O)Nc2ccc(F)c(Nc3ncnc4cnc(N5Cc6ccccc6C5)nc34)c2F)C1` yielded SW480 (Ymin %) of 18

* * *

molecular target: CRAF (Homo sapiens, UniProt P04049); experiment: CRAF kinase activity assay (ADP-Glo); format: biochemical; conditions: Table 3
Reported Endpoint: IC50

Solved cases (5 shown):
- Compound: "Cc1c(F)cccc1S(=O)(=O)Nc1ccc(F)c(Nc2ncnc3cnc(-n4nc(C(=O)N5CCC[C@H](O)C5)c5ccccc54)nc23)c1F [Example 109]"
  IC50: "10 to 50 nM"
- Compound: "CN(CCO)c1cccc2c1ncn2-c1ncc2ncnc(Nc3c(F)ccc(NS(=O)(=O)c4cccc(Cl)c4Cl)c3F)c2n1 [Example 134]"
  IC50: "< 10 nM"
- Compound: "COc1ccc(S(=O)(=O)Nc2ccc(F)c(Nc3ncnc4cnc(-n5cnc6ccccc65)nc34)c2F)c(C)c1Cl [Example 115]"
  IC50: "10 to 50 nM"
- Compound: "Cc1c(F)cccc1S(=O)(=O)Nc1ccc(F)c(Nc2ncnc3cnc(-n4cnc5c(N)cccc54)nc23)c1F [Example 82]"
  IC50: "< 10 nM"
- Compound: "COC1CCN(c2cccc3c2ncn3-c2ncc3ncnc(Nc4c(F)ccc(NS(=O)(=O)c5cccc(Cl)c5Cl)c4F)c3n2)CC1 [Example 131]"
  IC50: "10 to 50 nM"

Just so you know, measured IC50 for O=S(=O)(Nc1ccc(F)c(Nc2ncnc3cnc(-n4cnc5ccccc54)nc23)c1F)c1cccc(Cl)c1C(F)(F)F [Example 156] came out at < 10 nM

Per the records, this compound ( Cc1c(F)cccc1S(=O)(=O)Nc1ccc(F)c(Nc2ncnc3cnc(-n4cc(C(=O)N5CCC(O)CC5)c5ccccc54)nc23)c1F [Example 102] ) has IC50 equal to < 10 nM

Noted for Cc1c(F)cccc1S(=O)(=O)Nc1ccc(F)c(Nc2ncnc3cnc(-n4cc(C(=O)N(C)C)c5ccccc54)nc23)c1F [Example 97] : its IC50 reads 10 to 50 nM

* * *

system: SW480 pERK; test: Phospho-ERK inhibition, AlphaLISA SureFire Ultra p-ERK 1/2; type: cell-based, human; details: Table 3; lowest value of the pERK IC50 curve
Reported Endpoint: SW480 (Ymin %)
Report the value in % with no unit label.

# annotated cases, reported SW480 (Ymin %) shown
- Molecule: "COc1ccc(S(=O)(=O)Nc2ccc(F)c(Nc3ncnc4cnc(OC)nc34)c2F)cc1"
  System Under Test: "SW480 pERK"
  Test Value: 12
- Molecule: "O=S(=O)(Nc1ccc(F)c(Nc2ncnc3cnc(-n4cnc5ccccc54)nc23)c1F)N1CCCC1"
  System Under Test: "SW480 pERK"
  Test Value: "−4"
- Molecule: "O=S(=O)(Nc1ccc(F)c(Nc2ncnc3cnc(-n4cnc5ccccc54)nc23)c1F)N1CC2CC2C1 (stereo not drawn)"
  System Under Test: "SW480 pERK"
  Test Value: "−7"
- Molecule: "Cc1ncn(-c2ncc3ncnc(Nc4c(F)ccc(NS(=O)(=O)c5ccc6c(c5)CCO6)c4F)c3n2)c1C"
  System Under Test: "SW480 pERK"
  Test Value: 5
- Molecule: "Cc1c(F)cccc1S(=O)(=O)Nc1ccc(F)c(Nc2ncnc3cnc(-n4cnc5c(-c6cccnc6)cccc54)nc23)c1F"
  System Under Test: "SW480 pERK"
  Test Value: 2

Reported SW480 (Ymin %) for `COc1ccc(S(=O)(=O)Nc2ccc(F)c(Nc3ncnc4cnc(-n5ccnc5C)nc34)c2F)cc1` was 8

Reported SW480 (Ymin %) ( `Cc1ncn(-c2ncc3ncnc(Nc4c(F)ccc(NS(=O)(=O)c5ccc(Cl)cc5Cl)c4F)c3n2)c1C` ) = 2

Entry `COc1ccc(S(=O)(=O)Nc2ccc(F)c(Nc3ncnc4cnc(N5CC(F)(F)C5)nc34)c2F)c(F)c1` , SW480 (Ymin %) reported as −9

Reported SW480 (Ymin %) of `Cc1c(F)cccc1S(=O)(=O)Nc1ccc(F)c(Nc2ncnc3cnc(-n4cc(C(=O)N(C)Cc5ccncc5)c5ccccc54)nc23)c1F` : −1

The reported value for `O=S(=O)(Nc1ccc(F)c(Nc2ncnc3cnc(-n4cnc5c(N6CCC7(CCCO7)CC6)cccc54)nc23)c1F)c1cccc(Cl)c1Cl` in terms of SW480 (Ymin %) is 3

Value of SW480 (Ymin %) reported for the molecule `CO[C@@H]1CCN(S(=O)(=O)Nc2ccc(F)c(Nc3ncnc4cnc(-n5ccc6cccnc65)nc34)c2F)C1` is −4

Recorded SW480 (Ymin %) (molecule CC1CCN(S(=O)(=O)Nc2ccc(F)c(Nc3ncnc4cnc(-n5cnc6ccccc65)nc34)c2F)C1 (stereo not drawn) ): 7
